Target: CDK2/cyclin A2 (Homo sapiens)
Test: Human CDK2/cyclin A2 inhibitory activity (QS S Assist CDK2/Cyclin A2_FP Kit, IMAP fluorescent polarization)
Conditions: read-out: CDK2 Activity symbol

{"columns": ["molecule", "IC50"],
 "data": [
  ["CN1CCN(c2ccc(Nc3ncc4cc(CO)nc(N5CCCCC5=O)c4n3)nc2)CC1 [Compound 3]", "≥ 100 nM"],
  ["C[C@@H](O)c1cc2cnc(Nc3ccc(CN4CCN(C)CC4)cn3)nc2c(N2CCC2)n1 [Compound 172]", "≥ 100 nM"],
  ["C[C@@H](O)c1cc2cnc(Nc3ccc(CN4CCC(O)CC4)cn3)nc2c(N2CCOCC2)n1 [Compound 67]", "≥ 100 nM"],
  ["CC(O)c1cc2cnc(Nc3ccc(CN4CCN(C)CC4)cn3)nc2c(N2CC3CCC(C2)O3)n1 (centres unmarked) [Compound 321]", "≥ 100 nM"],
  ["C[C@@H](O)c1cc2cnc(Nc3ccc(CN4CCN(CCO)CC4)cn3)nc2c(N2CCC[C@H](F)C2)n1 [Compound 180]", "≥ 100 nM"],
  ["C[C@@H](O)c1cc2cnc(Nc3ccc(CN4CCN(CCO)CC4)cn3)nc2c(N2CCC(C(F)(F)F)CC2)n1 [Compound 84]", "≥ 100 nM"],
  ["C[C@@H](O)c1cc2cnc(Nc3ccc(CN4CCC(O)CC4)cn3)nc2c(N2CCCCC2)n1 [Compound 65]", "≥ 100 nM"],
  ["C[C@@H](O)c1cc2cnc(Nc3ccc(CN4CCN(CCO)CC4)cn3)nc2c(N2CCCC2(C)C)n1 [Compound 75]", "10 to 100 nM"]
]}

---

# key: entry, value: pIC50
Target: CDK2/cyclin A2 (Homo sapiens, UniProt P24941)
Assay: Human CDK2/cyclin A2 inhibitory activity (QS S Assist CDK2/Cyclin A2_FP Kit, IMAP fluorescent polarization)
Conditions: read-out: CDK2 Activity symbol
pIC50: −log10 of the molar value.

{"columns": ["compound", "testTarget", "pIC50"],
 "data": [
  ["Cc1nc(Nc2ncc3cc([C@@H](C)O)nc(N4CCOC[C@@H]4C)c3n2)ccc1N1CCNCC1 [Compound 296]", "CDK2/cyclin A2 (Homo sapiens, UniProt P24941)", "≤ 7.00"],
  ["C[C@@H](O)c1cc2cnc(Nc3ccc(C(=O)N4CCCN(C)CC4)cn3)nc2c(N2CCCCC2)n1 [Compound 304]", "CDK2/cyclin A2 (Homo sapiens, UniProt P24941)", "7.00 to 8.00"],
  ["C[C@@H](O)c1cc2cnc(Nc3ccc(N4CCN(CCO)CCC4=O)cn3)nc2c(N2CCCCC2)n1 [Compound 151]", "CDK2/cyclin A2 (Homo sapiens, UniProt P24941)", "≤ 7.00"],
  ["CN1CCN(c2ccc(Nc3ncc4cc(CO)nc(-c5ccccc5)c4n3)nc2)CC1 [Compound 6]", "CDK2/cyclin A2 (Homo sapiens, UniProt P24941)", "≤ 7.00"],
  ["C[C@@H](O)c1cc2cnc(Nc3ccc4c(n3)CCN(CCO)C4)nc2c(N2CCC(F)CC2)n1 [Compound 112]", "CDK2/cyclin A2 (Homo sapiens, UniProt P24941)", "≤ 7.00"],
  ["Cc1nc(Nc2ncc3cc([C@@H](C)O)nc(N4CCCCCC4)c3n2)ccc1N1CCCNCC1=O [Compound 306]", "CDK2/cyclin A2 (Homo sapiens, UniProt P24941)", "7.00 to 8.00"],
  ["CC[C@@H](O)c1cc2cnc(Nc3ccc(CN4CCN(CCO)CC4)cn3)nc2c(N2CCC[C@H]2C)n1 [Compound 247]", "CDK2/cyclin A2 (Homo sapiens, UniProt P24941)", "≤ 7.00"]
]}
